assay: activity coefficient (dimensionless); of the first substance listed, at infinite dilution; xn = mol fraction of the nth substance listed; settings: 358.15 K; 100 kPa; Liquid; Chromatography; x1 = 0
observation_type: activity coefficient

compound="Cc1ccc(C)cc1 [1,4-dimethylbenzene] + CC(O)C(=O)[O-].CC[N+]1(C)CCCC1" measured_value=10.5

P: C1CCCCCCC1 [cyclooctane] + CC(O)C(=O)[O-].CC[N+]1(C)CCCC1
Q: CCC(C)(C)OC [2-methoxy-2-methylbutane] + CC(O)C(=O)[O-].CC[N+]1(C)CCCC1
R: CO [methanol] + CC(O)C(=O)[O-].CC[N+]1(C)CCCC1
S: C=CCCCCCC [oct-1-ene] + CC(O)C(=O)[O-].CC[N+]1(C)CCCC1
Output the entries ranked by activity coefficient from maximum down to minimum. Would you mind listing the labels in the order requested?
S, P, Q, R
(S: 108, P: 68, Q: 26.1, R: 0.086)
